testSystem: T1, HLA-A*01:01 (human)
T1 construct: Peptide-receptive MHC class I monomer: a UV-sensitive peptide (not specified) is cleaved and exchanged with the test peptide
measurementProtocol: UV peptide exchange, anti-b2m ELISA; exchange yield grade
Entries and their measured peptide exchange yield follow.

Solved entries (count: 5):
* NSDLFYLLL | ≥ 75%
* NVSFEVSLLY | ≥ 75%
* SADTAELLL | 20 to 50%
* FTQKINSTW | 20 to 50%
* DVDIHKDLY | ≥ 75%

Inquiry: Name the recorded peptide exchange yield for LNFSDVFLY .
Reply text: 20 to 50%

Inquiry: Name the recorded peptide exchange yield for VSPDEVLALW .
Reply text: 20 to 50%

Inquiry: Name the recorded peptide exchange yield for NSENLLVY .
Reply text: 50 to 75%
